// provenance: ChEMBL document CHEMBL2321833

Target: Mitogen-activated protein kinase 3 (Homo sapiens, UniProt P27361)
Sequence (P27361 whole entry): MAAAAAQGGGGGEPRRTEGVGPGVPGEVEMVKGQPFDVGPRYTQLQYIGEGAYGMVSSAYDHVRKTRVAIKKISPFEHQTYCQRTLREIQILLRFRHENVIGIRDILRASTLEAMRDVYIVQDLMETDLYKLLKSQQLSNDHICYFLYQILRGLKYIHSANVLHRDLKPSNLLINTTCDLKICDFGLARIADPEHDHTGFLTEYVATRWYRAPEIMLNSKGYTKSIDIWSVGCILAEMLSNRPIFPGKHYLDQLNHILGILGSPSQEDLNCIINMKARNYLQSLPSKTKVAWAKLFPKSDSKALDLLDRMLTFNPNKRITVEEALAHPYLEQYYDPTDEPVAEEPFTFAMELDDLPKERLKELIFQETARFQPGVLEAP
Experiment: Inhibition of Erk-1 (unknown origin)
Parameter Measured: Ki

(Q) Tell me the measured Ki of CC(C)[C@@](C)(O)[C@@H]1CN(c2nc(-c3n[nH]c4ncccc34)c(F)cc2Cl)CCN1 , please.
(A) > 1000 nM

* * *

Target: UniProt Q04759
Sequence (Q04759 whole entry): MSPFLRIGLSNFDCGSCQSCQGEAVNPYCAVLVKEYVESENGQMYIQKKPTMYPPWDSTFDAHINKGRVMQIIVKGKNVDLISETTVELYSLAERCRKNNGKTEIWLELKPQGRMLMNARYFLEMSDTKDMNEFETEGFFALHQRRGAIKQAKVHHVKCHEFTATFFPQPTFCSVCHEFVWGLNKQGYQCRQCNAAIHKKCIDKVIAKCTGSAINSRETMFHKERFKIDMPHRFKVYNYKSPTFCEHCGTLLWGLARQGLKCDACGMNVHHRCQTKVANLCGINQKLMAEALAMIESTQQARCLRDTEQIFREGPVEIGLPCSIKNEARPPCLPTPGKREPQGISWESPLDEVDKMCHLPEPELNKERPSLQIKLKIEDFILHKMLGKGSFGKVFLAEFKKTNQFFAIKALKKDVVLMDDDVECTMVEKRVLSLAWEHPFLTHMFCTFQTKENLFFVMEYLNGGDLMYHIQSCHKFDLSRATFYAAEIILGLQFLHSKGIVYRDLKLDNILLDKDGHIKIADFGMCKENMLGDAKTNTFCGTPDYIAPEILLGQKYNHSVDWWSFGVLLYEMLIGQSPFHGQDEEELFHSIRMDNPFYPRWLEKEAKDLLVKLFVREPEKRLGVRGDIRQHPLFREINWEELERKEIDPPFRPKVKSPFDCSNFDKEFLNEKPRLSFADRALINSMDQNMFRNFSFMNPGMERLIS
Assay: Inhibition of PKC-theta in human PBMC cells assessed as inhibition of IL-2 after 24 hrs by bead-based FLISA assay
Please provide measured IC50 for the entries that follow.
One number for each entry, in nM.

(Q) Missing value: IC50, UniProt Q04759, entry CC(C)[C@@](C)(O)[C@@H]1CN(c2nc(-c3n[nH]c4ncccc34)c(F)cc2F)CCN1 . Fill in?
(A) 2

(Q) Missing value: IC50, UniProt Q04759, entry CC(C)[C@@](C)(O)[C@@H]1CN(c2nc(-c3n[nH]c4ncccc34)c(F)cc2CO)CCN1 . Fill in?
(A) 1

(Q) Missing value: IC50, UniProt Q04759, entry CC(C)[C@@](C)(O)[C@@H]1CN(c2nc(-c3n[nH]c4ncccc34)c(F)cc2O)CCN1 . Fill in?
(A) 4

(Q) Missing value: IC50, UniProt Q04759, entry CC(C)[C@@](C)(O)[C@@H]1CN(c2ccc(Cl)c(-c3n[nH]c4ncccc34)n2)CCN1 . Fill in?
(A) 170

(Q) Missing value: IC50, UniProt Q04759, entry CC(C)[C@@](C)(O)[C@@H]1CN(c2ccc(C(F)(F)F)c(-c3n[nH]c4ncccc34)n2)CCN1 (racemic) . Fill in?
(A) 420

# input for lookup
(Q) Missing value: IC50, UniProt Q04759, entry CC(C)[C@@](C)(O)[C@@H]1CN(c2nc(-c3n[nH]c4ncccc34)c(F)cc2Cl)CCN1 . Fill in?
(A) 11
